Source: patent US12427210B2

molecular target: FAP (Homo sapiens, UniProt Q12884)
Sequence (Q12884 whole entry): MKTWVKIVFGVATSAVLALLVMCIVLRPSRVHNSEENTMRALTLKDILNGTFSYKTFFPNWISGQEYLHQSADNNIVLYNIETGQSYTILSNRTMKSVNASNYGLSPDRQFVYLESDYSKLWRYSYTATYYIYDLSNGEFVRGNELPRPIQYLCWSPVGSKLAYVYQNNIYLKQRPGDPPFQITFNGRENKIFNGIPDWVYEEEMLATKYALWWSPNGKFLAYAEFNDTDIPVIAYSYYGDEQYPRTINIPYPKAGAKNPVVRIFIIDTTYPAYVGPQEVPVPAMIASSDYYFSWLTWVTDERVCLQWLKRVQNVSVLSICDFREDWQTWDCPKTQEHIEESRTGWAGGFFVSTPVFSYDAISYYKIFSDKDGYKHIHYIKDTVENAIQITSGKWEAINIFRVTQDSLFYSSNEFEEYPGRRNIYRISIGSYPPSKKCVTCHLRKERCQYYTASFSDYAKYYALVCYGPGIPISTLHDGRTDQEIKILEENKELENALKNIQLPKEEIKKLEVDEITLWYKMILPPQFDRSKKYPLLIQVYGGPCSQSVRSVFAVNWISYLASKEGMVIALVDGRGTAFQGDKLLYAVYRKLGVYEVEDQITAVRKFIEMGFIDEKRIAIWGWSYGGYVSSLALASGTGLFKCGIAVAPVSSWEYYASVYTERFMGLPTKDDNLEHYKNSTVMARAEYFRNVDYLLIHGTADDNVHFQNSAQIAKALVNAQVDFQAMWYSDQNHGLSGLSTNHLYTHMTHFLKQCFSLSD
parameter: IC50

**Query** Kindly indicate its recorded IC50. Item: CCCCCC(=O)N[C@H]1CSCc2cc(CSCCNC(=O)CN3CCN4CCN5CCN(CC3)CC(=O)[O][Eu]([O]C(=O)C4)[O]C(=O)C5)cc(c2)CSC[C@@H](C(=O)O)NC(=O)[C@H](Cc2ccccc2)NC(=O)[C@H](CCC(N)=O)NC(=O)[C@H]([C@@H](C)O)NC(=O)[C@@H]2CCCN2C(=O)[C@@H]2CCCN2C1=O
**Result** < 10 nM

**Query** Kindly indicate its recorded IC50. Item: CCCCCC(=O)N[C@H]1CSCc2cc(CSCCNC(=O)CN3CCN4CCN5CCN(CC3)CC(=O)[O][Lu]([O]C(=O)C4)[O]C(=O)C5)cc(c2)CSC[C@@H](C(=O)O)NC(=O)[C@H](Cc2ccccc2)NC(=O)[C@H](CCC(N)=O)NC(=O)[C@H]([C@@H](C)O)NC(=O)[C@@H]2CCCN2C(=O)[C@@H]2CCCN2C1=O
**Result** < 10 nM
